Below, each entry is listed alongside its reported log K.
assay notes: Glutathione reactivity of the compound
Type: physicochemical
Reply with the value as a number alone.

Consider the worked cases shown below.
I am curious: what log K value has been reported for O=C(Cc1ccc(O)c(O)c1)OCCc1ccc([N+](=O)[O-])cc1 ?
2.42

I am curious: what log K value has been reported for C#CCOC(=O)Cc1ccc(O)c(O)c1 ?
2.21

I am curious: what log K value has been reported for Oc1ccccc1O [CATECHOL] ?
2.24

I am curious: what log K value has been reported for CCCCOC(=O)Cc1ccc(O)c(O)c1 ?
2.37

Then this compound:
I am curious: what log K value has been reported for O=C(O)Cc1ccc(O)c(O)c1 [3,4-DIHYDROXYPHENYLACETIC ACID] ?
2.09

---

Below, each entry is listed alongside its reported CC50.
assay notes: Cytotoxicity in mouse 3T3 cells assessed as inhibition of cell proliferation
Assay type: cell-based
condition description: NIH3T3 cells, read-out: LC50 (the source's name)
API: value field is a number in µM; no unit string.

I am curious: what CC50 value has been reported for C#CCOC(=O)Cc1ccc(O)c(O)c1 ?
53.2

I am curious: what CC50 value has been reported for CCCCOC(=O)Cc1ccc(O)c(O)c1 ?
5.6

I am curious: what CC50 value has been reported for O=C(Cc1ccc(O)c(O)c1)OCCc1ccc([N+](=O)[O-])cc1 ?
5.4

I am curious: what CC50 value has been reported for Oc1ccccc1O [CATECHOL] ?
7.87

---

Below, each entry is listed alongside its reported Ratio.
System: Sporosarcina pasteurii
assay notes: Inhibition of purified Sporosarcinia pasteurii urease assessed as Kinact/Ki ratio by phenol red based method
API: value field is a number in M⁻¹ s⁻¹; no unit string.

Consider the worked cases shown below.
I am curious: what Ratio value has been reported for O=C(Cc1ccc(O)c(O)c1)NCCc1ccccc1 ?
247

I am curious: what Ratio value has been reported for O=C(Cc1ccc(O)c(O)c1)NCCc1ccc([N+](=O)[O-])cc1 ?
29.1

I am curious: what Ratio value has been reported for O=C(Cc1ccc(O)c(O)c1)OCc1cn(-c2ccccc2)nn1 ?
114

I am curious: what Ratio value has been reported for CCCCCCOC(=O)Cc1ccc(O)c(O)c1 ?
92.7

I am curious: what Ratio value has been reported for CCCOC(=O)Cc1ccc(O)c(O)c1 ?
124

I am curious: what Ratio value has been reported for O=C(Cc1ccc(O)c(O)c1)OCCc1ccc([N+](=O)[O-])cc1 ?
379

I am curious: what Ratio value has been reported for O=C(Cc1ccc(O)c(O)c1)OCCc1ccccc1 ?
243

Then this compound:
I am curious: what Ratio value has been reported for CCCCCCCCOC(=O)Cc1ccc(O)c(O)c1 ?
27.6

---

Tested on: Sporosarcina pasteurii
assay notes: Inhibition of purified Sporosarcinia pasteurii urease assessed as Kinact/Ki ratio by phenol red based method
Below, each entry is listed alongside its reported Ratio.

Consider the worked cases shown below.
I am curious: what Ratio value has been reported for O=C(O)Cc1ccc(O)c(O)c1 [3,4-DIHYDROXYPHENYLACETIC ACID] ?
32 M⁻¹ s⁻¹

I am curious: what Ratio value has been reported for O=C(Cc1ccc(O)c(O)c1)OCCc1ccc(F)cc1 ?
46.8 M⁻¹ s⁻¹

I am curious: what Ratio value has been reported for C=CCNC(=O)Cc1ccc(O)c(O)c1 ?
76.4 M⁻¹ s⁻¹

I am curious: what Ratio value has been reported for CCC(C)NC(=O)Cc1ccc(O)c(O)c1 (centres undefined) ?
142 M⁻¹ s⁻¹

I am curious: what Ratio value has been reported for C#CCOC(=O)Cc1ccc(O)c(O)c1 ?
1380 M⁻¹ s⁻¹

I am curious: what Ratio value has been reported for COC(=O)Cc1ccc(O)c(O)c1 ?
44 M⁻¹ s⁻¹

I am curious: what Ratio value has been reported for C=CCOC(=O)Cc1ccc(O)c(O)c1 ?
94.1 M⁻¹ s⁻¹

I am curious: what Ratio value has been reported for CCOC(=O)Cc1ccc(O)c(O)c1 ?
56.3 M⁻¹ s⁻¹

Others:
I am curious: what Ratio value has been reported for O=C(Cc1ccc(O)c(O)c1)OC1CCCCC1 ?
169 M⁻¹ s⁻¹

I am curious: what Ratio value has been reported for O=C(Cc1ccc(O)c(O)c1)NC1CCCCC1 ?
221 M⁻¹ s⁻¹

I am curious: what Ratio value has been reported for Oc1ccccc1O ?
346 M⁻¹ s⁻¹

I am curious: what Ratio value has been reported for CCCCOC(=O)Cc1ccc(O)c(O)c1 ?
571 M⁻¹ s⁻¹

I am curious: what Ratio value has been reported for CCCCCOC(=O)Cc1ccc(O)c(O)c1 ?
101 M⁻¹ s⁻¹

I am curious: what Ratio value has been reported for O=C(Cc1ccc(O)c(O)c1)OCc1ccccc1 ?
99.7 M⁻¹ s⁻¹
